Values compiled from PubChem BioAssay (NCATS).

- ASSAY_REMARKS: Stat Signaling Pathway (AID 446);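 also: ME-180 cervical cancer cells given 40 pM IL-6 alongside compound; SIE-controlled beta-lactamase reporter measured as 460/530 nm FRET emission ratio; % is scaled to controls: 0 for no effect and ±100 for the full control effect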
- RUN_PARAMETERS: ME-180 SIE beta-lactamase reporter, IL-6 stimulated, 5 h; at 7.69 µM (top of the series) unless noted
Records with an inconclusive call do not appear.
METRIC: activity, negative = inhibition (%)
Numeric answer only, unit % assumed.

INPUT: Name the recorded activity, negative = inhibition of the item O=C(O)c1ccc(Oc2nc3ccccc3s2)cc1 in your answer.
OUTPUT: 5.77

INPUT: Name the recorded activity, negative = inhibition of the item Cc1[nH]c2c(C)ccc(C)c2c1CC(=O)O in your answer.
OUTPUT: 9.85

INPUT: Name the recorded activity, negative = inhibition of the item Cc1c(S(=O)(=O)O)ccc(N=Nc2c(O)c(C(=O)O)cc3ccccc23)c1Cl in your answer.
OUTPUT: -10.2

INPUT: Name the recorded activity, negative = inhibition of the item COc1ccc(C(=O)N2CCC3(CC2)CN(c2ccccc2)C3)cc1 in your answer.
OUTPUT: -21.3

INPUT: Name the recorded activity, negative = inhibition of the item COc1ccc(C(=O)N2CCC[C@@]3(CCN(c4ccccc4)C3)C2)cc1 in your answer.
OUTPUT: -1.29

INPUT: Name the recorded activity, negative = inhibition of the item CN(C)CCNc1nc2c(c(=O)n(C)c(=O)n2C)n1C in your answer.
OUTPUT: 9.47

INPUT: Name the recorded activity, negative = inhibition of the item c1nnc(NCNc2nncs2)s1 in your answer.
OUTPUT: -7.18

INPUT: Name the recorded activity, negative = inhibition of the item CN(C)Cc1nsc(N(C)C)n1 in your answer.
OUTPUT: 11.1

INPUT: Name the recorded activity, negative = inhibition of the item NC(N)=N[C@@H]1C(O)[C@H](N=C(N)N)[C@@H](O)C(O)[C@H]1O (stereo partly specified) in your answer.
OUTPUT: -0.855

INPUT: Name the recorded activity, negative = inhibition of the item C[C@H](CCC(=O)O)[C@H]1CC[C@@H]2[C@H]3[C@@H](C[C@@H](O)[C@]21C)[C@]1(C)CC[C@H](O)C[C@@H]1C[C@@H]3O in your answer.
OUTPUT: 13

INPUT: Name the recorded activity, negative = inhibition of the item CCN(CCO)C[C@H]1CCC[C@H]2CCCC[C@@H]21 in your answer.
OUTPUT: 4.97

* * *

- TARGET_OF_ASSAY: Cytochrome P450 1A2 (Homo sapiens) (UniProt P05177)
- Sequence (P05177 whole entry, looked up): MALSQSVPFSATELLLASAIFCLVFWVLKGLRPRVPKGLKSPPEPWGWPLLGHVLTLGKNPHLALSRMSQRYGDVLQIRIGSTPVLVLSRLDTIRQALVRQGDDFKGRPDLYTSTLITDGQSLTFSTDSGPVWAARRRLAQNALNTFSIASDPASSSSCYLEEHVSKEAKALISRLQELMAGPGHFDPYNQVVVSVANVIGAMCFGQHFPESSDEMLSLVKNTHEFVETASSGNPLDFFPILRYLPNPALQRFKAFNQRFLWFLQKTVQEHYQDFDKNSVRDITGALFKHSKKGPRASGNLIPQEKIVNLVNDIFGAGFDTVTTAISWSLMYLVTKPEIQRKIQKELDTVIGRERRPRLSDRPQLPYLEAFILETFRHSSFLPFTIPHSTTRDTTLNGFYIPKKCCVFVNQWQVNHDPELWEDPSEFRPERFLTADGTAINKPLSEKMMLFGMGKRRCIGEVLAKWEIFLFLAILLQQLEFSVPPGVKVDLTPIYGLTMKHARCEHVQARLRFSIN
- ASSAY_REMARKS: p450-cyp1a2 (AID 410)
- RUN_PARAMETERS: recombinant CYP1A2, luciferin-ME demethylation, luminescence; series mostly up to 11.4 µM
- Experimental: The P450 gene superfamily is involved in metabolism and the clearance of xenobiotics. This assay used human CYP1A2 to measure the demethylation of luciferin 6' methyl ether (Luciferin-ME; Promega-Glo) to luciferin. The luciferin is then measured by luminescence after the addition of a luciferase detection regeant. Luciferin-ME concentration in the assay was equal to its Km for CYP1A2. NCGC Assay Protocol Summary: […]
Records with an inconclusive call do not appear. The source made the active and inactive calls. The call rests on the fitted dose curve.
Write down one outcome, taken from active, inactive

INPUT: How was COc1ccc(NC(=S)Nc2ccccc2)cc1 classified in this test?
OUTPUT: active

INPUT: How was CC#C[C@@]1(O)CC[C@@H]2[C@@H]3CCC4=CC(=O)CCC4=C3[C@@H](c3ccc(N(C)C)cc3)C[C@]21C classified in this test?
OUTPUT: active

INPUT: How was CN(C)c1ccc(-c2nc(Nc3ccncc3)c3ccccc3n2)cc1 classified in this test?
OUTPUT: active

INPUT: How was C/C(=N/Nc1nc(C)cc(=O)[nH]1)C(=O)O classified in this test?
OUTPUT: inactive

INPUT: How was O=C1c2cc([N+](=O)[O-])ccc2-c2ccc3c4ccc5c6c(ccc(c7ccc1c2c73)c64)C(=O)c1cc([N+](=O)[O-])ccc1-5 classified in this test?
OUTPUT: active

INPUT: How was Nc1nc2c(C(=O)NCc3cccs3)nnn2c2cccc(Cl)c12 classified in this test?
OUTPUT: active

INPUT: How was O=C(O)/C=C\C(=O)N1Cc2cc3ccccc3nc2C1 classified in this test?
OUTPUT: inactive

INPUT: How was O=C(O)C/C(=C\c1ccccc1)C(=O)O classified in this test?
OUTPUT: inactive

INPUT: How was COc1cc(Cl)c(CC(=O)c2c[nH]c3ccccc23)cc1OC classified in this test?
OUTPUT: active

INPUT: How was Oc1ccc(Cn2c(-c3ccc(O)cc3)nc3ccccc32)cc1 classified in this test?
OUTPUT: inactive

INPUT: How was CCC[C@H](Sc1nc(N)nc2nc[nH]c12)C(=O)O classified in this test?
OUTPUT: inactive

* * *

- ASSAY_REMARKS: Stat Signaling Pathway (AID 446);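 also: ME-180 cervical cancer cells given 40 pM IL-6 alongside compound; SIE-controlled beta-lactamase reporter measured as 460/530 nm FRET emission ratio; % is scaled to controls: 0 for no effect and ±100 for the full control effect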
- RUN_PARAMETERS: ME-180 (cervical carcinoma) SIE beta-lactamase reporter, IL-6 stimulated, 5 h; at 7.69 µM (top of the series) unless noted
Results filed as inconclusive are left out. Active and inactive are the calls of the source. Calls come from the whole dose curve; as a rule, active = well fitted curve in either direction with a large enough effect (not every such curve was filed as active); inconclusive = small, poorly fitted or top-dose-only effect, or another doubt; inactive = flat fitted curve, though single readings scatter.
Field: activity, negative = inhibition. Provide a value for each of the compounds that follow.

INPUT: Name the recorded activity, negative = inhibition of the item O=C(O)C[C@@H](C(=O)O)c1ccccc1[N+](=O)[O-] in your answer.
OUTPUT: 6.64% (inactive)

INPUT: Name the recorded activity, negative = inhibition of the item Cc1cc2ncn(CC(=O)O)c2cc1C in your answer.
OUTPUT: 8.76% (inactive)

INPUT: Name the recorded activity, negative = inhibition of the item CC[N+](C)(CC)CCN1C(=O)c2ccccc2S1(=O)=O in your answer.
OUTPUT: -3.07% (inactive)

INPUT: Name the recorded activity, negative = inhibition of the item c1ccc2c(c1)nnn2CN1CCOCC1 in your answer.
OUTPUT: -18.4% (inactive)

INPUT: Name the recorded activity, negative = inhibition of the item c1ccc(-c2ccc(-c3ccc(C4=NCCN4)cc3)o2)cc1 in your answer.
OUTPUT: 25.4% (inactive)

INPUT: Name the recorded activity, negative = inhibition of the item Oc1c(Br)cc(CN(Cc2cc(Br)c(O)c(Br)c2)C2CCCCC2)cc1Br in your answer.
OUTPUT: -10.4% (inactive)

INPUT: Name the recorded activity, negative = inhibition of the item Cc1cccc(CNc2ncnc3[nH]ncc23)c1 in your answer.
OUTPUT: -8.78% (inactive)

INPUT: Name the recorded activity, negative = inhibition of the item CC(C)[C@@H](C(=O)O)N1C(=O)c2ccccc2C1=O in your answer.
OUTPUT: 2.83% (inactive)

INPUT: Name the recorded activity, negative = inhibition of the item CCCC(c1cc(C(C)(C)C)c(O)cc1C)c1cc(C(C)(C)C)c(O)cc1C in your answer.
OUTPUT: 4.1% (inactive)

INPUT: Name the recorded activity, negative = inhibition of the item CC(=O)[C@H]([C@@H](c1ccccc1)N1CCOCC1)N1CCOCC1 in your answer.
OUTPUT: 4.56% (inactive)

INPUT: Name the recorded activity, negative = inhibition of the item N[C@@H](Cc1cccc([N+](=O)[O-])c1)C(=O)O in your answer.
OUTPUT: 0.761% (inactive)

INPUT: Name the recorded activity, negative = inhibition of the item CCCNc1ncnc2[nH]ncc12 in your answer.
OUTPUT: -1.7% (inactive)

INPUT: Name the recorded activity, negative = inhibition of the item C[C@@]12C=CC(=O)C=C1CC[C@@H]1C2=CC[C@]2(C)[C@@H]1CC[C@H]2C(=O)CN1CCN(c2cc(N3CCCC3)nc(N3CCCC3)n2)CC1 in your answer.
OUTPUT: 9.08% [at 38 µM] (inactive)

INPUT: Name the recorded activity, negative = inhibition of the item S=C1N[C@H](c2ccccc2)N[C@H](c2ccccc2)S1 in your answer.
OUTPUT: -1.19% (inactive)

INPUT: Name the recorded activity, negative = inhibition of the item C#CCSc1n[nH]c(-c2ccco2)n1 in your answer.
OUTPUT: -3.07% (inactive)

INPUT: Name the recorded activity, negative = inhibition of the item O=S(=O)(O)n1ccnc1 (tested in a mixture with another compound) in your answer.
OUTPUT: 0.01% (inactive)

INPUT: Name the recorded activity, negative = inhibition of the item Cc1onc(-c2c(F)cccc2Cl)c1C(=O)N[C@@H]1C(=O)N2[C@H]1SC(C)(C)[C@H]2C(=O)O in your answer.
OUTPUT: 5.59% (inactive)

INPUT: Name the recorded activity, negative = inhibition of the item CC(C)[C@]1(Cl)CC[C@@H]2[C@]3(C)CCC[C@@](C)(C(=O)O)[C@H]3C[C@H](Cl)[C@@]2(Cl)[C@H]1Cl in your answer.
OUTPUT: 0.27% (inactive)

INPUT: Name the recorded activity, negative = inhibition of the item CCCC1c2c(ccc3ccccc23)Oc2ccc3ccccc3c21 in your answer.
OUTPUT: 10.6% (inactive)

INPUT: Name the recorded activity, negative = inhibition of the item NCC[C@H](N)C(=O)O in your answer.
OUTPUT: -3.44% (inactive)

INPUT: Name the recorded activity, negative = inhibition of the item Oc1c(C(O)(c2ccccc2)c2ccc3ccccc3c2O)ccc2ccccc12 in your answer.
OUTPUT: -10.4% (inactive)

INPUT: Name the recorded activity, negative = inhibition of the item CSc1nnnc2ccccc12 in your answer.
OUTPUT: 0.181% (inactive)

INPUT: Name the recorded activity, negative = inhibition of the item Cc1ccc(C2=C(Cl)C(=O)C(c3ccc(C)cc3)=C(Cl)C2=O)cc1 in your answer.
OUTPUT: -13.6% (inactive)
